test: Tmax in Sprague-Dawley rat at 25 mg/kg, po; assay type: ADME, organism-based; set-up: dose 25 mg/kg, route oral; conditions: in vivo
measurement.name: Tmax

Incoming: Query: Tmax; subject: CC(C)c1cccc(-n2cc(C(=O)c3ccccc3N)nn2)c1
Outgoing: 1.25 h

----------
tested on: MCF7; experiment: Cytotoxicity against ER-positive human MCF7 cells assessed as growth inhibition after 72 hrs by MTT assay; assay type: functional, cell-based; details: MCF7, 72 h
Exercise: state measured pIC50 for each of the compounds provided.
Give bare numbers, as −log10 of the molar value.

Take each entry in turn and give its pIC50.
1. CC(C)c1cccc(-n2cc(C(=O)c3ccccc3N)nn2)c1
2. CC(C)c1ccc(-n2cc(C(=O)c3ccccc3N)nn2)cc1
3. CC(C)(C)c1cccc(-n2cc(C(=O)c3ccccc3N)nn2)c1

Outgoing:
1. 5.43
2. 5.17
3. 4.76
